Hey, just so you know, these numbers are from patent US9078871B2.

Molecular target: ER-α (Homo sapiens)
Construct: endogenous in cells; host or cells: MCF-7
Sequence (P03372 1-595): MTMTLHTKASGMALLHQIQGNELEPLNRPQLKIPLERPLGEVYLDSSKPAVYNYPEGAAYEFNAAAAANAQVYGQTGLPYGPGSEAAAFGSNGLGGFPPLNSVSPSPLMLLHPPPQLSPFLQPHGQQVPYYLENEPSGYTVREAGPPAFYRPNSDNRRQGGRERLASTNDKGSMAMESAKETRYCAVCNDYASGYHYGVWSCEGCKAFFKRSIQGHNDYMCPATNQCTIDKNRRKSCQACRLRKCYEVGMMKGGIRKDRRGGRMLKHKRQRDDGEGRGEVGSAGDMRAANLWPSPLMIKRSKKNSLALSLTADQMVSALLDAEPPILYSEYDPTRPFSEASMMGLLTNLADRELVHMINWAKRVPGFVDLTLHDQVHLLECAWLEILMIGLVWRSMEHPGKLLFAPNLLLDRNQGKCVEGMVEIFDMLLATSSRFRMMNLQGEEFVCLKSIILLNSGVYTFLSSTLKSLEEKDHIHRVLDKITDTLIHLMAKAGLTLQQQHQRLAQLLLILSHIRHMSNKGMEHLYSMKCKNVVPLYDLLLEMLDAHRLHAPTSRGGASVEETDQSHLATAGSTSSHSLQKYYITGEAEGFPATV
Assay: ER-α In Cell Western Assay (ER1D5)
Format: cell-based
Conditions: MCF7; MCF-7 cells, ER1D5 antibody, 4 or 24 hr post compound addition; read-out: ER In-Cell Western Assay (ER1D5); Max Response
metric-name: Emax

*Q* Which value of Emax has been reported for CC1=C(c2cccc(O)c2)C(c2ccc(N(C)CCO)cc2)Oc2ccc(O)cc21 (stereo not drawn) in the records?
*A* < 40%

*Q* Queued: CNCCOc1ccc(C2Oc3ccc(O)cc3C(C)=C2c2cccc(O)c2)cc1 (stereo not drawn)
*A* < 40%

*Q* Similarly, CC1=C(c2cccc(O)c2)C(c2ccc(OCCN3CCCC3)cc2)Oc2cc(O)ccc21 (stereo not drawn) ?
*A* 40 to 65%

*Q* Would you kindly repeat that for CC1=C(c2cccc(O)c2)C(c2ccc(OCCN3CCCCC3)cc2)Oc2ccc(O)cc21 (stereo not drawn) ?
*A* 40 to 65%

*Q* And CC1=C(c2cccc(O)c2)C(c2ccc(OCCN3CCCC3)cc2F)Oc2ccc(O)cc21 (stereo not drawn) ?
*A* 40 to 65%

*Q* Try this compound too: CC1=C(c2ccc(O)c(F)c2)C(c2ccc(OC[C@H](C)N3CC[C@@H](C)C3)cc2)Oc2ccc(O)cc21 (stereo partly drawn)
*A* ≥ 65%

*Q* Next: CC1=C(c2ccccc2)C(c2ccc(OC[C@H](C)N3CC[C@@H](C)C3)cc2)Oc2ccc(O)cc21 (stereo partly drawn)
*A* ≥ 65%

*Q* What would you report for CC1=C(c2cccc(O)c2)C(c2ccc(OCCN3CC[C@@H](C)C3)cc2)Oc2ccc(O)cc21 (stereo partly drawn) ?
*A* ≥ 65%

*Q* Entry CC1=C(c2cccc(O)c2)C(c2ccc(OCCN3CCCCCCC3)cc2)Oc2ccc(O)cc21 (stereo not drawn) please
*A* < 40%

*Q* Also, CC1=C(c2cccc(O)c2)C(c2ccc(OC[C@H](C)N3CC[C@@H](C)C3)cc2)Oc2ccc(O)cc21 (mixture of isomers) please.
*A* ≥ 65%

*Q* Please give the result for CC1=C(c2cccc(O)c2)C(c2ccc(OCCn3ccnc3)cc2)Oc2ccc(O)cc21 (stereo not drawn) too.
*A* < 40%

*Q* Same lookup for CC1=C(c2cccc(O)c2)C(c2ccc(OC[C@H](C)N3CC[C@@H](C)C3)cc2F)Oc2ccc(O)cc21 (stereo partly drawn) , please.
*A* ≥ 65%

*Q* Note, next up: CC1=C(c2cccc(O)c2)C(c2ccc(OC[C@H](C)N3CC[C@H](C)C3)cc2)Oc2ccc(O)cc21 (stereo partly drawn)
*A* 40 to 65%

*Q* Subsequent entry: CC1=C(c2cccc(O)c2)C(c2ccc(NCCN3CCCC3)cc2)Oc2ccc(O)cc21 (stereo not drawn)
*A* 40 to 65%

*Q* Quick one: CC1=C(c2cccc(O)c2)C(c2ccc(OC[C@@H](C)N3CC[C@@H](C)C3)cc2)Oc2ccc(O)cc21 (stereo partly drawn)
*A* < 40%

*Q* Quick one: CC1=C(c2cccc(O)c2)C(c2ccc(OCCN3CCC3)cc2)Oc2ccc(O)cc21 (stereo not drawn)
*A* 40 to 65%

*Q* Can you check CC1=C(c2cccc(O)c2)[C@H](c2ccc(OC[C@H](C)N3CC[C@@H](C)C3)cc2)Oc2ccc(O)cc21 (single isomer, unassigned) next?
*A* ≥ 65%

*Q* Check CC1=C(c2cccc(O)c2)C(c2ccc(OC[C@H](C)N3CCCCC3)cc2)Oc2ccc(O)cc21 (stereo partly drawn) too.
*A* 40 to 65%

*Q* # repeat for CC1=C(c2cccc(O)c2)C(c2ccc(OCCN3CCC(C)(C)C3)cc2)Oc2ccc(O)cc21 (stereo not drawn)
*A* ≥ 65%

*Q* Proceed to CC1=C(c2cccc(O)c2)C(c2ccc(OCCN3CCC[C@H]3C)cc2)Oc2ccc(O)cc21 (stereo partly drawn)
*A* 40 to 65%

*Q* Queued: CC1=C(c2ccc(F)cc2)C(c2ccc(OC[C@H](C)N3CC[C@@H](C)C3)cc2)Oc2ccc(O)cc21 (mixture of isomers)
*A* ≥ 65%

*Q* Try this compound too: CC1=C(c2cccc(O)c2)C(c2ccc(OCCN3CCCC3)cc2)Oc2ccc(O)cc21 (stereo not drawn)
*A* 40 to 65%

*Q* Param item: CC1=C(c2cccc(O)c2)C(c2ccc(OC[C@H](C)N3CCCC3)cc2)Oc2ccc(O)cc21 (stereo partly drawn)
*A* ≥ 65%

*Q* // next record CC1=C(c2ccc(Br)cc2)C(c2ccc(OC[C@H](C)N3CC[C@@H](C)C3)cc2)Oc2ccc(O)cc21 (stereo partly drawn)
*A* ≥ 65%

*Q* Another compound: CC1=C(c2ccc(F)c(O)c2)C(c2ccc(OC[C@H](C)N3CC[C@@H](C)C3)cc2)Oc2ccc(O)cc21 (stereo partly drawn)
*A* ≥ 65%

*Q* Would you kindly repeat that for CC1=C(c2cccc(O)c2)C(c2ccc(OC[C@H](C)N3CCCCCC3)cc2)Oc2ccc(O)cc21 (stereo partly drawn) ?
*A* 40 to 65%

*Q* Same read-out for CC1=C(c2cccc(F)c2)C(c2ccc(OC[C@H](C)N3CC[C@@H](C)C3)cc2)Oc2ccc(O)cc21 (stereo partly drawn) ?
*A* ≥ 65%

*Q* CC1=C(c2ccc(O)cc2)C(c2ccc(OC[C@H](C)N3CC[C@@H](C)C3)cc2)Oc2ccc(O)cc21 (stereo partly drawn) , same question.
*A* ≥ 65%

*Q* Cool, now CC1=C(c2ccc(O)cc2)C(c2ccc(OC[C@H](C)N3CC[C@@H](C)C3)cc2)Oc2cc(O)ccc21 (stereo partly drawn)
*A* ≥ 65%

*Q* Then what about the compound CC1=C(c2cccc(O)c2)C(c2ccc(OCCN3CCC[C@@H](C)C3)cc2)Oc2ccc(O)cc21 (stereo partly drawn) ?
*A* 40 to 65%
